- Tested on: PD-L1 (PD-L1 aAPC/CHO-K1 cells, Jurkat-PD-1-NFAT effector cells)
- assay: Nuclear Factor of Activated T-cells (NFAT) assay
- Assay type: cell-based
- conditionInfo: Cricetulus griseus; PD-L1 aAPC/CHO-K1 + Jurkat-PD-1-NFAT cells, 24 hours
pEC50: −log10 of the molar value.
metric: pEC50

Cc1c(NC(=O)c2nc3c(n2C)CCN(CCC24CCC(C(=O)O)(CC2)C4)C3)cccc1-c1cccc(NC(=O)c2nc3c(n2C)CCN(CCC24CCC(C(=O)O)(CC2)C4)C3)c1Cl [Compound 32]	> 7.00
Cc1c(NC(=O)c2nc3c(n2C)CCN(CC[C@H]2CC[C@H](C(=O)O)CC2)C3)cccc1-c1cccc(NC(=O)c2nc3c(n2C)CCN(C)C3)c1Cl [Compound 16]	> 7.00

query: May I ask what pEC50 has been recorded for Cc1c(-c2nc3c(s2)CN(C(=O)CN(C)C)C3)cccc1-c1cccc(-c2nc3c(s2)CN(C(=O)CN2CC[C@@H](O)C2)C3)c1C [Compound 14] ?
result: > 6.30

query: Dear colleague, I am looking for the recorded pEC50 of the following molecule: C[C@@H](O)CN1CCc2c(nc(C(=O)Nc3cccc(-c4cccc(NC(=O)c5nc6c(n5C)CCN(CCC57CCC(C(=O)O)(CC5)C7)C6)c4Cl)c3Cl)n2C)C1 [Compound 29]
result: > 8.00

query: Give its pEC50 value. Item: Cc1c(NC(=O)c2nc3c(n2C)CCN(C[C@H]2CC[C@H](C(=O)O)CC2)C3)cccc1-c1cccc(NC(=O)c2nc3c(n2C)CCN(C)C3)c1Cl [Compound 15]
result: > 7.00

query: Need pEC50 of Cc1c(-c2nc3c(Cl)cc(CNCCO)cn3n2)cccc1-c1cccc(NC(=O)c2ccc(CNCCO)cn2)c1Cl [Compound 2] , thanks.
result: > 6.30

query: Quick one: pEC50 for CCN(C)CC(=O)N1Cc2nc(-c3cccc(-c4cccc(Nc5nccc6cc(CN7CC[C@@H](C(=O)O)C7)cnc56)c4Cl)c3C)sc2C1 [Compound 13] ?
result: > 7.00

query: Quick one: pEC50 for Cc1c(Nc2nccc3cc(CN4CC[C@@H](O)C4)cnc23)cccc1-c1cccc(NC(=O)c2nc3c(n2C)CCN(CC[C@H]2CC[C@H](C(=O)O)CC2)C3)c1Cl [Compound 10] ?
result: > 7.00

---

- experimentalTarget: PD-L1 on CD14+ cells in human whole blood (Homo sapiens, UniProt Q9NZQ7)
- Construct: Cells were gated on CD14+ (BD Biosciences) and PD-L1 expression determined by mean fluorescence intensity
- Sequence (Q9NZQ7 19-290): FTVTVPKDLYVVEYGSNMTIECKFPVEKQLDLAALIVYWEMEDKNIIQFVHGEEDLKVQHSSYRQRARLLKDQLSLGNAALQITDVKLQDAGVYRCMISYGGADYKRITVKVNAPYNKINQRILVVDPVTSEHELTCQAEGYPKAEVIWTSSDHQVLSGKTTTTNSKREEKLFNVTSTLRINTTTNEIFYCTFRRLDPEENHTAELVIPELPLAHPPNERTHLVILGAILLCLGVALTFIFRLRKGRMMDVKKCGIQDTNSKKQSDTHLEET
- assay: PD-L1 whole blood internalization assay
- conditionInfo: 1 ng/mL interferon γ, CD14+ gated, 24 hour
Here, each record is paired with measured IC50 data.

Worked cases, IC50 given:
Cc1c(NC(=O)c2nc3c(n2C)CCN(C)C3)cccc1-c1cccc(NC(=O)c2nc3c(n2C)CCN(C[C@H]2CC[C@@H](C(=O)O)CC2)C3)c1Cl	< 100 nM
Cc1c(-c2nc3c(s2)CN(C(=O)CN(C)C(C)C)C3)cccc1-c1cccc(NC(=O)c2nc3c(n2C)CCN(CCC2CCC(C(=O)O)CC2)C3)c1Cl (stereo not drawn)	< 100 nM

# evaluate next
query: IC50 for Cc1c(-c2nc3cc(CN4CCC(C(=O)O)CC4)cc(C#N)c3o2)cccc1-c1cccc(-c2nc3c(s2)CN(C(=O)CN(C)C)C3)c1C ?
result: < 100 nM

---

The following molecules are listed with their measured pEC50 values.
- Tested on: PD-L1 (PD-L1 aAPC/CHO-K1 cells, Jurkat-PD-1-NFAT effector cells)
- assay: Nuclear Factor of Activated T-cells (NFAT) assay
- Type: cell-based
- conditionInfo: Cricetulus griseus; PD-L1 aAPC/CHO-K1 + Jurkat-PD-1-NFAT cells, 24 hours
pEC50: −log10 of the molar value.

These recorded examples may help you get a feel for the data.
CN1CCc2c(nc(C(=O)Nc3cccc(-c4cccc(NC(=O)c5nc6c(n5C)CCN(CC[C@H]5CC[C@H](C(=O)O)CC5)C6)c4C#N)c3Cl)n2C)C1	> 7.00
Cc1c(Nc2nccc3cc(CN4CC[C@H](O)C4)cnc23)cccc1-c1cccc(-c2nc3cc(CN4CC[C@H](C(=O)O)C4)cc(C#N)c3o2)c1C	> 7.00

// next entry
query: # query: pEC50 | item Cc1c(Nc2nccc3cc(CN4CC[C@H](O)C4)cnc23)cccc1-c1cccc(-c2nc3cc(CN4CC[C@@H](C(=O)O)C4)cc(C#N)c3o2)c1C | system: PD-L1 (PD-L1 aAPC/CHO-K1 cells, Jurkat-PD-1-NFAT effector cells)
result: > 7.00

---

- experimentalTarget: PD-L1 on CD14+ cells in human whole blood (Homo sapiens)
- Construct: Cells were gated on CD14+ (BD Biosciences) and PD-L1 expression determined by mean fluorescence intensity
- assay: PD-L1 whole blood internalization assay
- conditionInfo: 1 ng/mL interferon γ, CD14+ gated, 24 hour
metric: IC50

Sample records with IC50:
Cc1c(Nc2nccc3cc(CN4CC[C@@H](O)C4)cnc23)cccc1-c1cccc(NC(=O)c2nc3c(n2C)CCN(CC[C@H]2CC[C@H](C(=O)O)CC2)C3)c1Cl	< 0.1 µM
Cc1c(NC(=O)c2nc3c(n2C)CCN(C[C@H]2CC[C@H](C(=O)O)CC2)C3)cccc1-c1cccc(NC(=O)c2nc3c(n2C)CCN(C)C3)c1Cl	< 0.5 µM
Cn1c(C(=O)Nc2cccc(-c3cccc(NC(=O)c4nc5c(n4C)CCN(CCC46CCC(C(=O)O)(CC4)C6)C5)c3C#N)c2Cl)nc2c1CCN(CCC13CCC(C(=O)O)(CC1)C3)C2	< 0.1 µM
Cc1c(Nc2nccc3cc(CN4CC[C@@H](O)C4)cnc23)cccc1-c1cccc(-c2nc3cc(CN4CC[C@H](C(=O)O)C4)cc(C#N)c3o2)c1C	< 0.5 µM

Please look at the following molecule next.
query: # get_value(readout='IC50', item= Cc1c(Nc2nccc3cc(CN4CC[C@@H](O)C4)cnc23)cccc1-c1cccc(-c2nc3cc(CN4CC[C@@H](C(=O)O)C4)cc(C#N)c3o2)c1C )
result: < 0.5 µM

---

- experimentalTarget: PD-L1 on CD14+ cells in human whole blood (Homo sapiens)
- Construct: Cells were gated on CD14+ (BD Biosciences) and PD-L1 expression determined by mean fluorescence intensity
- assay: PD-L1 whole blood internalization assay
- conditionInfo: 1 ng/mL interferon γ, CD14+ gated, 24 hour
pIC50: −log10 of the molar value.
metric: pIC50

Consider the worked cases shown below.
CCN(C)CC(=O)N1Cc2nc(-c3cccc(-c4cccc(NC(=O)c5nc6c(n5C)CCN(CCC5CCC(C(=O)O)CC5)C6)c4Cl)c3C)sc2C1 (centres unmarked)	> 6.30
Cc1c(Nc2nc(C(F)F)nc3cc(CN4CC[C@@H](O)C4)cnc23)cccc1-c1cccc(NC(=O)c2nc3c(n2C)CCN(CCC24CCC(C(=O)O)(CC2)C4)C3)c1Cl	> 8.00
Cc1c(Nc2nccc3cc(CN4CC[C@@](C)(O)C4)cnc23)cccc1-c1cccc(NC(=O)c2nc3c(n2C)CCN(C[C@H]2CC[C@@H](C(=O)O)CC2)C3)c1Cl	> 7.00
CCN(C)CC(=O)N1Cc2nc(-c3cccc(-c4cccc(NC(=O)c5nc6c(n5C)CCN(C[C@H]5CC[C@@H](C(=O)O)CC5)C6)c4Cl)c3C)sc2C1	> 7.00
Cn1c(C(=O)Nc2cccc(-c3cccc(NC(=O)c4nc5c(n4C)CCN(CCC46CCC(C(=O)O)(CC4)C6)C5)c3Cl)c2Cl)nc2c1CCN(CCC13CCC(C(=O)O)(CC1)C3)C2	> 7.00
Cc1c(Nc2nc(C(F)F)nc3cc(CN4CC[C@@H](O)C4)cnc23)cccc1-c1cccc(-c2nc3cc(CN4CC[C@@](C)(C(=O)O)C4)cc(C#N)c3o2)c1C	> 7.00
Cc1c(Nc2nccc3cc(CN4CC[C@H](O)C4)cnc23)cccc1-c1cccc(-c2nc3cc(CN4CC[C@@H](C(=O)O)C4)cc(C#N)c3o2)c1C	> 6.30
Cc1c(NC(=O)c2ccc(CNCCO)cn2)cccc1-c1cccc(NC(=O)c2ccc(CNCCO)cn2)c1Cl	> 8.00
Cc1c(Nc2nc(C(F)F)nc3cc(CN4CC[C@](C)(O)C4)cnc23)cccc1-c1cccc(-c2nc3cc(CN4CCC(C(=O)O)CC4)cc(C#N)c3o2)c1C	> 7.00
Cc1c(Nc2nc(C(F)F)nc3cc(CN4CC[C@@](C)(O)C4)cnc23)cccc1-c1cccc(-c2nc3cc(CN4CCC(C(=O)O)CC4)cc(C#N)c3o2)c1C	> 7.00

Turning to the following molecule.
query: Reported pIC50 for Cc1c(Nc2ncnc3cc(CN4CC[C@@H](O)C4)cnc23)cccc1-c1cccc(NC(=O)c2nc3c(n2C)CCN(C2CCC(C)(C(=O)O)CC2)C3)c1Cl (some centres unmarked) : what is it?
result: > 7.00
